# SYSTEM: Heat shock protein HSP 90-beta/Hsp90 co-chaperone Cdc37 (Homo sapiens, UniProt P08238+Q16543)
# Sequence (P08238 whole entry): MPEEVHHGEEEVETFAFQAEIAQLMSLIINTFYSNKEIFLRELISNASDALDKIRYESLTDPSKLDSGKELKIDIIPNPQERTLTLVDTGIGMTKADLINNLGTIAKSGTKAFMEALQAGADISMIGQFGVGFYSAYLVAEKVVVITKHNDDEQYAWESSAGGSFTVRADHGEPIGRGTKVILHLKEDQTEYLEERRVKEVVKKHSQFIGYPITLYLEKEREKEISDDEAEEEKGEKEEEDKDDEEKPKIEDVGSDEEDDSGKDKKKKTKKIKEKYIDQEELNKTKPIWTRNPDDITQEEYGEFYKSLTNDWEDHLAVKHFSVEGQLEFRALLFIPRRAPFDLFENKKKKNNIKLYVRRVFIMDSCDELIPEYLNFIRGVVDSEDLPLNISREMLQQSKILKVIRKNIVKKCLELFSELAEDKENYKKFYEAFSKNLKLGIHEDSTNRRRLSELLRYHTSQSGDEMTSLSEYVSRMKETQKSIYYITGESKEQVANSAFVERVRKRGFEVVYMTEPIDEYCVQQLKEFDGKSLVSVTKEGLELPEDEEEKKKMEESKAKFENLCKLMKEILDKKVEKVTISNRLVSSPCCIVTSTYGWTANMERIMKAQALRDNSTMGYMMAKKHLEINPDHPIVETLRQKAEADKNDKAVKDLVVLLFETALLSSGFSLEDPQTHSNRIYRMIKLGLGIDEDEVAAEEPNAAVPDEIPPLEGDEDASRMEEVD
# Sequence (Q16543 whole entry): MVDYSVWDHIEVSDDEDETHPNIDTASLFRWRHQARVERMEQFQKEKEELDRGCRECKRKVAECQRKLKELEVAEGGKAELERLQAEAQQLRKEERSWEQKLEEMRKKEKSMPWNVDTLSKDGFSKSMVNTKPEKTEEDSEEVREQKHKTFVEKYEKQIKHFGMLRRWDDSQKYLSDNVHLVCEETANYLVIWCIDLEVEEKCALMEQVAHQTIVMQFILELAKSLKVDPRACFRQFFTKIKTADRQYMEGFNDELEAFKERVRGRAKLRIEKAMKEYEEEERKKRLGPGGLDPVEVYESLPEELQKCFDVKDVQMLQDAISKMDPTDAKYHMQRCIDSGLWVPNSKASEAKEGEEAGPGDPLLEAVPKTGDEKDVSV
# ASSAY_DETAILS: Disruption of His-tagged full length HSP90 (unknown origin)/GST-tagged Cdc37 (unknown origin) measured after 1 hr by HTRF method
pIC50: −log10 of the molar value.
Attribute: pIC50

ENTRY_SMILES: CC1=C(O)C(=O)C=C2C1=CC=C1[C@@]2(C)CC[C@@]2(C)[C@@H]3C[C@](C)(C(=O)OCc4cccc(C)c4)CC[C@]3(C)CC[C@]12C
pIC50: 5.21

ENTRY_SMILES: COCCOC(=O)[C@]1(C)CC[C@]2(C)CC[C@]3(C)C4=CC=C5C(=CC(=O)C(O)=C5C)[C@]4(C)CC[C@@]3(C)[C@@H]2C1
pIC50: 5.17

ENTRY_SMILES: C#CCOC(=O)[C@]1(C)CC[C@]2(C)CC[C@]3(C)C4=CC=C5C(=CC(=O)C(O)=C5C)[C@]4(C)CC[C@@]3(C)[C@@H]2C1
pIC50: 5.77
